Where do these numbers come from? They come from patent US20060058231A1.

- Target or test system: T1, BMPRII receptor-Fc fusion (UniProt Q13873 27-151, limits assumed)
- T1 construct: BMP receptor-Fc fusion used at 5 ug/mL
- T1 sequence (looked up): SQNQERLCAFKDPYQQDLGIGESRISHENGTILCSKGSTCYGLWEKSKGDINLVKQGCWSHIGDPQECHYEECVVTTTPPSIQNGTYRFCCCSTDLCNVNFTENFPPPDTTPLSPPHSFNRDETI
- Test method notes: ELISA-like plate assay, captured BMP-7 from conditioned media, receptor-Fc detection
Known BMPRII binding (relative to wild type = 1.0) of a selection of binders

BMP-7 variant F93G (ligand, In conditioned media; numbering on mature BMP-7) STGGKQRSQNRSKTPKNQEALRMASVAENSSSDQRQACKKHELYVSFRDLGWQDWIIAPEGYAAYYCEGECAFPLNSYMNATNHAIVQTLVHGINPETVPKPCCAPTQLNAISVLYFDDSSNVILKKYRNMVVRACGCH : 0.35 relative to wild type

Qu. # return recorded BMPRII binding (relative to wild type = 1.0) for entry BMP-7 variant W52A (ligand, In conditioned media; numbering on mature BMP-7) STGGKQRSQNRSKTPKNQEALRMASVAENSSSDQRQACKKHELYVSFRDLGAQDWIIAPEGYAAYYCEGECAFPLNSYMNATNHAIVQTLVHFINPETVPKPCCAPTQLNAISVLYFDDSSNVILKKYRNMVVRACGCH
Ans. 1.25 relative to wild type
